Molecular target: Mot3 (UniProt P54785)
Sequence: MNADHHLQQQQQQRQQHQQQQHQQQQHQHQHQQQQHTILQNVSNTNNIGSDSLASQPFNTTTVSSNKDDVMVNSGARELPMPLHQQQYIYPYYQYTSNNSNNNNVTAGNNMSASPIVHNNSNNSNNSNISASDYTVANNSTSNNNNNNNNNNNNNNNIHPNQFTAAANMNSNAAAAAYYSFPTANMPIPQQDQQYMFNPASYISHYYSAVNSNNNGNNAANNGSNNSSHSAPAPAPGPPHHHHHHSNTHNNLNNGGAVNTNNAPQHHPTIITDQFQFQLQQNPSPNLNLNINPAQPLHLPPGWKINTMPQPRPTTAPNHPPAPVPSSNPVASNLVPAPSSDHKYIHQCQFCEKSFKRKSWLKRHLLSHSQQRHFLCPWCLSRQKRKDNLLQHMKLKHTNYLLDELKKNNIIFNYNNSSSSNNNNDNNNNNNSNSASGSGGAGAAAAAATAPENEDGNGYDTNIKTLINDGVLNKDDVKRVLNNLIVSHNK
Experiment: PBM E-score (8-mer binding enrichment) (E-score (-0.5 to 0.5)); higher = stronger / more preferred TF binding
Details: protein concentration: 200 nM; construct: GST-full length
Over roughly 33,000 sequences, “E-score (-0.5 to 0.5)” has its median near -0.035; the highest 2% begin near 0.34. This is one part of a sample in which the highest values are shown more often than they occur.
Listed next: entries and their corresponding PBM E-score.
readout_name: PBM E-score

>  <input_sequence>
GTGTACAA

>  <study_target>
Mot3 (UniProt P54785)

>  <value_observed>
0.325

$$$$
>  <input_sequence>
CTGTAAAC

>  <study_target>
Mot3 (UniProt P54785)

>  <value_observed>
0.295

$$$$
>  <input_sequence>
CAAGGCGC

>  <study_target>
Mot3 (UniProt P54785)

>  <value_observed>
0.191

$$$$
>  <input_sequence>
ACCCCCTA

>  <study_target>
Mot3 (UniProt P54785)

>  <value_observed>
-0.298

$$$$
>  <input_sequence>
CTAGACTA

>  <study_target>
Mot3 (UniProt P54785)

>  <value_observed>
-0.24

$$$$
>  <input_sequence>
AAAGGCTG

>  <study_target>
Mot3 (UniProt P54785)

>  <value_observed>
0.0993

$$$$
>  <input_sequence>
CGGTGTCC

>  <study_target>
Mot3 (UniProt P54785)

>  <value_observed>
-0.376

$$$$
>  <input_sequence>
GGCCGAAA

>  <study_target>
Mot3 (UniProt P54785)

>  <value_observed>
-0.186

$$$$
>  <input_sequence>
GATGAAGA

>  <study_target>
Mot3 (UniProt P54785)

>  <value_observed>
-0.135

$$$$
>  <input_sequence>
AGGTCGAA

>  <study_target>
Mot3 (UniProt P54785)

>  <value_observed>
0.00993

$$$$
>  <input_sequence>
ATCCTGAA

>  <study_target>
Mot3 (UniProt P54785)

>  <value_observed>
0.0408

$$$$
>  <input_sequence>
GCACACCA

>  <study_target>
Mot3 (UniProt P54785)

>  <value_observed>
0.143

$$$$
>  <input_sequence>
ACCTAGGT

>  <study_target>
Mot3 (UniProt P54785)

>  <value_observed>
0.124

$$$$
>  <input_sequence>
ATCTGCCC

>  <study_target>
Mot3 (UniProt P54785)

>  <value_observed>
-0.0711

$$$$
>  <input_sequence>
CTAGCACC

>  <study_target>
Mot3 (UniProt P54785)

>  <value_observed>
-0.0791

$$$$
>  <input_sequence>
ATGTAAAG

>  <study_target>
Mot3 (UniProt P54785)

>  <value_observed>
0.411

$$$$
>  <input_sequence>
CTGTAAAA

>  <study_target>
Mot3 (UniProt P54785)

>  <value_observed>
0.302

$$$$
>  <input_sequence>
GAAGGCCC

>  <study_target>
Mot3 (UniProt P54785)

>  <value_observed>
0.122

$$$$
>  <input_sequence>
GAAGGCGC

>  <study_target>
Mot3 (UniProt P54785)

>  <value_observed>
0.362

$$$$
>  <input_sequence>
ACACTTAC

>  <study_target>
Mot3 (UniProt P54785)

>  <value_observed>
0.188

$$$$
>  <input_sequence>
GGGTAAAC

>  <study_target>
Mot3 (UniProt P54785)

>  <value_observed>
-0.0508

$$$$
>  <input_sequence>
CACGTTCG

>  <study_target>
Mot3 (UniProt P54785)

>  <value_observed>
0.00382

$$$$
